- experimental-system: Hepatocyte Growth Factor (HGF), human (human, UniProt P14210 32-728)
- Sequence (P14210 32-728): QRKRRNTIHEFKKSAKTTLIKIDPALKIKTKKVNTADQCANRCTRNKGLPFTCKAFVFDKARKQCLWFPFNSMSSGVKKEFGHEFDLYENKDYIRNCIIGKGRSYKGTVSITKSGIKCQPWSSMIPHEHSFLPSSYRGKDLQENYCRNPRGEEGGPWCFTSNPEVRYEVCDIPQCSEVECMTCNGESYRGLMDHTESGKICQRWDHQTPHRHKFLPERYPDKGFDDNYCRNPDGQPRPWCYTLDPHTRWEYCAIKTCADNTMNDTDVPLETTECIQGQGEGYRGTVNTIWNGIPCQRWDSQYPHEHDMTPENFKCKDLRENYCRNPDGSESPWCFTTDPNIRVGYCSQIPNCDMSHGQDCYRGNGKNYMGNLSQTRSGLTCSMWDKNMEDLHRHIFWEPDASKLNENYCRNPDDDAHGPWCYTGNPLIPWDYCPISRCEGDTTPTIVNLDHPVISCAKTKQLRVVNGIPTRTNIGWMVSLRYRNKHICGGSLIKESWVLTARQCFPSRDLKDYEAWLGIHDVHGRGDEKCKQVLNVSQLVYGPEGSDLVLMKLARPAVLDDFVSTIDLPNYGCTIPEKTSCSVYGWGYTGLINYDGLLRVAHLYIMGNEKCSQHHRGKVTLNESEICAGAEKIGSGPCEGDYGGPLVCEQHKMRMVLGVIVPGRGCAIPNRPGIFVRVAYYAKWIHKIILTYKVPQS
- assay: ELISA
Provide the recorded pEC50 for the entries that follow.
Please keep in mind that pEC50 is minus log10 of the molar concentration; only the number is needed.

Record request: pEC50 value, item HC 10/SLC 5 (antibody) chain 1: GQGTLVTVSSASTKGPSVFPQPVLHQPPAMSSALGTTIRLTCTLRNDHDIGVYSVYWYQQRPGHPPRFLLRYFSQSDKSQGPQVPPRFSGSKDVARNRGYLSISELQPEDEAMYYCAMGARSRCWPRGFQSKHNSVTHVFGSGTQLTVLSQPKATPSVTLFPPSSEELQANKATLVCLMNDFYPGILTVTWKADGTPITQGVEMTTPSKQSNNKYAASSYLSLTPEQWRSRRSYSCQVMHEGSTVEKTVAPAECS chain 2: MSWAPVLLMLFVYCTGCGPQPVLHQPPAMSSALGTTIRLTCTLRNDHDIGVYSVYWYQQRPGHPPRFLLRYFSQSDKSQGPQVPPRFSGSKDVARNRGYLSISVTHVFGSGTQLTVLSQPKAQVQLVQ
10.21

Follow-up item: HC 9/SLC 3 (antibody) chain 1: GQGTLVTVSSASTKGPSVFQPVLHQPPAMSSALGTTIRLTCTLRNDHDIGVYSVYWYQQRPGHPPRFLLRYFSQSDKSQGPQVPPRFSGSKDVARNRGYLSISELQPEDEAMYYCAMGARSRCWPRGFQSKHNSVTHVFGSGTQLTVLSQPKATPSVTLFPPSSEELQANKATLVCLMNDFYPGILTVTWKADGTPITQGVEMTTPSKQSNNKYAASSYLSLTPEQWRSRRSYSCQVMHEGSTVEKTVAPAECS chain 2: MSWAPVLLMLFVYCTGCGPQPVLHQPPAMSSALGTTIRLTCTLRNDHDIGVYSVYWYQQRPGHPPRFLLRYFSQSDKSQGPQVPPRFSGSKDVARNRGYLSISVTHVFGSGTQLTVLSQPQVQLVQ
10.11

Lookup HC 7/SLC 5 (antibody) chain 1: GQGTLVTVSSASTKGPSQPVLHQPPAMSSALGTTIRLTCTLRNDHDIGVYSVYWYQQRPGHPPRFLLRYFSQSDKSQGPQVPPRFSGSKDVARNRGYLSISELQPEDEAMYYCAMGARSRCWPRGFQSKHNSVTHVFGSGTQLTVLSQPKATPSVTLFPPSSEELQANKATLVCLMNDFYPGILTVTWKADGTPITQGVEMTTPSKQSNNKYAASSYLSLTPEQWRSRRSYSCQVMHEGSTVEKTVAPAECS chain 2: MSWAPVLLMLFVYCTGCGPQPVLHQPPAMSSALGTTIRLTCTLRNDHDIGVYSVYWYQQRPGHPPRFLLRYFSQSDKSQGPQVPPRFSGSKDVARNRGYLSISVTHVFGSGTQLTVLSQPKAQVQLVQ
10.25

Same question, HC 10/SLC 4 (antibody) chain 1: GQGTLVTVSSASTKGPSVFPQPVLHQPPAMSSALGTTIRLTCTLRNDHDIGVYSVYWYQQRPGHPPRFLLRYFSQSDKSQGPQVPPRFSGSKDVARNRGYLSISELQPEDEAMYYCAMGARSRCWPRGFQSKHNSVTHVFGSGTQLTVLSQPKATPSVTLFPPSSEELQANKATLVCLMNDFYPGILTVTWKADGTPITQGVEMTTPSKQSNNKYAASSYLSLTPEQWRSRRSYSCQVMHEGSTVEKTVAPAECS chain 2: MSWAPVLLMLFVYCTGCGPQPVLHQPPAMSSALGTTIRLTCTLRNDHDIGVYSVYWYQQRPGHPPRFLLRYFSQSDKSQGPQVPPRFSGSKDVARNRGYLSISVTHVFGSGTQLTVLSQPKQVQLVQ this time
10.15

Taken from patent US20150045540A1.
